- method summary: Single dose clinical study: plasma Compound A pharmacokinetics
- Format: in vivo, human
- run conditions: human, plasma, oral, 25 mg, Japanese, 25 mg, with weight as covariate; read-out: AUC(O-inf) Geometric LS Means Test
endpoint name: AUC
Dear colleague, please send the value followed by its unit.

query: Give its AUC value. Item: COc1ncc(C)c(-c2ccc3c(c2)[nH]c(=O)c2cnn([C@H]4CCOC4)c23)c1C [Compound A]
result: 4500 ng·h/mL

---

- method summary: Single dose clinical study: plasma Compound A pharmacokinetics
- Format: in vivo, human
- run conditions: human, plasma, po, 800 mg, plasma, healthy adults (Parts A,B), single oral 800 mg, fasted; read-out: Vz/F GM
endpoint name: Vd/F (L)
Entry rule: numbers only, all in L.

query: Give its Vd/F value. Item: "COc1ncc(C)c(-c2ccc3c(c2)[nH]c(=O)c2cnn([C@H]4CCOC4)c23)c1C"
result: 438
